Hey, just so you know, these numbers are from patent US20240109974A1.

Biological target: T1, human TNFR2 (Novoprotein, Cat #C830) (human, UniProt P20333 23-257, limits assumed)
T1 construct: construct not described; also called human TNFR2 protein
T1 sequence (looked up): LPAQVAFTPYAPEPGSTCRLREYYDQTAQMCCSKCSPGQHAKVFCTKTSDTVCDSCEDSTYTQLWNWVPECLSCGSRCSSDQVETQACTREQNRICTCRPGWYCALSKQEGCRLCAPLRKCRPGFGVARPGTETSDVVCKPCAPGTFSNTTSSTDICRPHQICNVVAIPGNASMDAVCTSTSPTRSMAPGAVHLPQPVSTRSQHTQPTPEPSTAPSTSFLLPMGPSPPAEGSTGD
Test: competition ELISA, competitor human TNFα-Biotin; AUC against 001-WT
Description: 1 μg/ml human TNFR2 (Novoprotein, Cat #C830) was pre-coated with 100 μl/well of the antibody in an ELISA plate. […] A stop solution was added to stop the reaction, and then a microplate reader (MD 13) was used to read the absorbance value. […]
value.kind: % Relative activity (WT antibody/test antibody) (%)
Give just the number in %; leave the unit off.

Provide measured % Relative activity (WT antibody/test antibody) value, entry: 001-Hu4 (antibody, V domains shown, Humanized form of #001; also called VH2 + VL4) VH: EVQLVESGGGLVQPGGSLRLSCAASGFAFSTYDLSWVRQAPGKGLEWVAYINNGGISTYYSDTVKGRFTISRDNAKNSLYLQMNSLRAEDTAVYYCVRGPFYGSANYFDYWGQGTLVTVSS VL: DIQMTQSPSSLSASVGDRVTITCRTSESIYSNLPWYQQKPGKSPKLLVYDATKLAEGVPSRFSGSGSGTDYTLTISSLQPEDFATYYCQHFWVTPWTFGQGTKVEIK
101

Provide measured % Relative activity (WT antibody/test antibody) value, entry: 001-Hu2 (antibody, V domains shown, Humanized form of #001; also called VH2 + VL2) VH: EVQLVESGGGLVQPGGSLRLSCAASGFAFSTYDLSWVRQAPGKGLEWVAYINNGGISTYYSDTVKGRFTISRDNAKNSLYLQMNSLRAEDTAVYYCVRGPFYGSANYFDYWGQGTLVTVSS VL: DIQMTQSPSSLSASVGDRVTITCRTSESIYSNLPWYQQKPGKSPKLLIYDATKLAEGVPSRFSGSGSGTDFTLTISSLQPEDFATYYCQHFWVTPWTFGQGTKVEIK
97.1

Provide measured % Relative activity (WT antibody/test antibody) value, entry: 001-Hu3 (antibody, V domains shown, Humanized form of #001; also called VH1 + VL3) VH: EVQLVESGGGLVQPGGSLRLSCAASGFAFSTYDLSWVRQAPGKGLEWVAYINNGGISTYYSDTVKGRFTISRDNAKNTLYLQMNSLRAEDTAVYYCVRGPFYGSANYFDYWGQGTLVTVSS VL: DIQMTQSPSSLSASVGDRVTITCRTSESIYSNLPWYQQKPGKAPKLLIYDATKLAEGVPSRFSGSGSGTDYTLTISSLQPEDFATYYCQHFWVTPWTFGQGTKVEIK
99.4

Provide measured % Relative activity (WT antibody/test antibody) value, entry: 001-Hu5 (antibody, V domains shown, Humanized form of #001; also called VH1 + VL4) VH: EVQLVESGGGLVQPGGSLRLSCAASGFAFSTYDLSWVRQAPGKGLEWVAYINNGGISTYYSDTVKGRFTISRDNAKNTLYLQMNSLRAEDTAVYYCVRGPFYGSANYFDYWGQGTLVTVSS VL: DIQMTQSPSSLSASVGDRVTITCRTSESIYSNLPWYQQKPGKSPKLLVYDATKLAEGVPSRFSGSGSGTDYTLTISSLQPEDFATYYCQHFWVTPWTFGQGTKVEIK
98
